TESTED TARGET: Scribble PDZ1 (Homo sapiens)
Construct: human Scribble PDZ1 aa 719–829 in; made in house; host or cells: E. coli BL21 Gold (DE3)
Sequence (Q14160 719-829): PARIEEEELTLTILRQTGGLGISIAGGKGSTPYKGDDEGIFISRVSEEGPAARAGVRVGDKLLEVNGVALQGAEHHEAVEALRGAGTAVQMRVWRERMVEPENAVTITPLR
METHOD: Pre-phosphorylation ProP-PD: wild-type library treated with RPS6KA1 or not, selection with NGS
Assay type: binding
CONDITION LABEL: Without Kinase; mean of the two selections; bait Scribble PDZ1
QUANTITY: Unphosphorylated selection Mean fraction

• SIDLWETAL [SLC15A5] = 1.656e-5
• TKGISITSI [GNRHR2] = 3.175e-5
• TMFLRETSL [GUCY1A2] = 0.1808
• DKESFLTWL [YAP1] = 0.0001256
• TALKVMTMV [DACT2] = 9.668e-6
• RSRSISTDV [FAM163B] = 2.348e-5
• LPHSPHSHL [AAAS] = 4.139e-6
